Data origin: the NIST ThermoML archive (doi:10.1021/je9010486)

assay: cn = amount concentration of the nth substance listed, in mol/dm3
condition.label: 303.15 K; 101 kPa; Liquid; c1 = 0.7
quantity: mass density (kg/m3)

| compound | unit | numeric.readout |
| --- | --- | --- |
| OC[C@@H](O)[C@@H](O)[C@H](O)[C@H](O)CO [mannitol] + O | kg/m3 | 1038.19 |
| OC[C@@H](O)[C@H](O)[C@@H](O)CO [xylitol] + O | kg/m3 | 1030.28 |
| OC[C@@H](O)[C@@H](O)[C@H](O)[C@@H](O)CO [D-sorbitol] + O | kg/m3 | 1040.11 |
| OC[C@@H](O)[C@@H](O[C@H]1O[C@H](CO)[C@@H](O)[C@H](O)[C@H]1O)[C@H](O)[C@@H](O)CO [4-O-α-D-glucopyranosyl-D-glucitol] + O | kg/m3 | 1060.84 |
| OC[C@@H](O)[C@@H](O)CO [meso-1,2,3,4-butanetetrol] + O | kg/m3 | 1020.8 |
